test system: Shigella flexneri; experiment: Antimicrobial activity against Shigella flexneri isolate C506 harboring sul1 to sul3 genes assessed as antibiotic resistance breakpoint by agar dilution method; assay type: functional
Metric: Activity (µg/mL)
Report as a plain number; the unit µg/mL is understood.

Report its Activity with Shigella flexneri as the test system: NC[C@H]1O[C@H](O[C@H]2[C@H](O)[C@@H](O[C@H]3O[C@H](CO)[C@@H](O)[C@H](N)[C@H]3O)[C@H](N)C[C@@H]2N)[C@H](O)[C@@H](O)[C@@H]1O
16

Report its Activity with Shigella flexneri as the test system: COc1cc(Cc2cnc(N)nc2N)cc(OC)c1OC
16

Report its Activity with Shigella flexneri as the test system: CN[C@@H]1[C@H](O[C@H]2[C@H](O[C@H]3[C@H](O)[C@@H](O)[C@H](N=C(N)N)[C@@H](O)[C@@H]3N=C(N)N)O[C@@H](C)[C@]2(O)C=O)O[C@@H](CO)[C@H](O)[C@H]1O
16

Report its Activity with Shigella flexneri as the test system: CC1(C)S[C@@H]2[C@H](NC(=O)[C@H](N)c3ccccc3)C(=O)N2[C@H]1C(=O)O
16

Report its Activity with Shigella flexneri as the test system: NC[C@@H]1O[C@H](O[C@H]2[C@@H](O)[C@H](O[C@@H]3[C@@H](O)[C@H](N)C[C@H](N)[C@H]3O[C@H]3O[C@H](CN)[C@@H](O)[C@H](O)[C@H]3N)O[C@@H]2CO)[C@H](N)[C@@H](O)[C@@H]1O
8
